Overview of recorded Inhibition for various molecules
system: Escherichia coli; conditions: Concentration 20 uM; ASSAY_TEST Inhibition of Bacterial Growth; detection method Absorption (OD600); MEDIA CAMHB; plate type 384well; NBS; CORNING #3640; time 18 hr
Description: Antibacterial activity against Escherichia coli ATCC 25922 (CO-ADD:GN_001); MIC in CAMBH media using NBS plates, by OD(600)
Measured potencies and affinities stand elsewhere.
Form entry: value (%) — number only.

# example entries with known answers
> print(dat)
                                   molecule  units.of.measure  obs.value
1              NC(=O)c1cccnc1 [NIACINAMIDE]                 %       3.02
2  NC(=O)N1c2ccccc2CC(=O)c2ccccc21 [OXCARBAZEPINE]                 %       -1.4
3  CCOc1cc(N)c(Cl)cc1C(=O)NCC1CN(Cc2ccc(F)cc2)CCO1.O=C(O)CC(O)(CC(=O)O)C(=O)O (stereo not given) [MOSAPRIDE CITRATE]                 %       3.47
4  CC(C)c1ccc2c(c1)c(SC(C)(C)C)c(CC(C)(C)C(=O)O)n2Cc1ccc(Cl)cc1                 %       5.68
5  Cl.O.c1cnc(N2CCN(Cc3ccc4c(c3)OCO4)CC2)nc1                 %      -1.86

Problem: For Escherichia coli, provide Inhibition of CCCN[C@H]1CCc2nc(N)sc2C1 [PRAMIPEXOLE] please.
Result: 2.75

Problem: Subsequent entry: Nc1nc(O)c2ncn(CCC(CO)CO)c2n1
Result: 2.89

Problem: Repeat for the following molecule: CN1CC(=O)N2[C@H](c3ccc4c(c3)OCO4)c3[nH]c4ccccc4c3C[C@@H]2C1=O
Result: 0.57

Problem: What would you report for CCc1cccc2c3c([nH]c12)C(CC)(CC(=O)O)OCC3 (stereo not given) ?
Result: -6.35

The measured values listed here are drawn from ChEMBL document CHEMBL4513141.
